# testedOn: UniProt Q99640
# experimentalProtocol: PKMYT1 HTRF Assay
# Format: binding
# assayContext: Tracer 178, GST-Tb; compound 10 μM to 0.5 nM; read-out: MYT1 HTRF IC50
pIC50: −log10 of the molar value.
assayEndpoint: pIC50

{"moleculeSmiles": "Cc1ccc(O)c(C)c1-c1cnc2[nH]c(-c3cnc(N4CC(O)C4)nc3)c(Cl)c2c1C#N", "observedMeasurement": "> 8.00"}
{"moleculeSmiles": "Cc1ccc(O)c(C)c1-c1cnc2[nH]c(-c3nnc[nH]3)cc2c1C#N", "observedMeasurement": "> 8.00"}
{"moleculeSmiles": "Cc1ncc(-c2[nH]c3ncc(-c4c(C)ccc(O)c4C)nc3c2C)cn1", "observedMeasurement": "7.30 to 8.00"}
{"moleculeSmiles": "Cc1ccc(O)c(C)c1-c1cnc2[nH]c(-c3cc[nH]n3)cc2c1C#N", "observedMeasurement": "> 8.00"}
{"moleculeSmiles": "Cc1ccc(O)c(C)c1-c1cnc2[nH]c(-c3cnc(N)c(C#N)c3)cc2c1C#N", "observedMeasurement": "> 8.00"}
{"moleculeSmiles": "Cc1ccc(O)c(C)c1-c1cnc2[nH]c(-c3cnc[nH]3)cc2c1C#N", "observedMeasurement": "> 8.00"}
{"moleculeSmiles": "Cc1ncc(-c2[nH]c3ncc(-c4c(C)ccc(O)c4C)c(C#N)c3c2C(F)(F)F)cn1", "observedMeasurement": "7.30 to 8.00"}
{"moleculeSmiles": "Cc1ccc(O)c(C)c1-c1cnc2[nH]c(-c3cnc(C)c(=O)[nH]3)c(Cl)c2c1C#N", "observedMeasurement": "7.30 to 8.00"}

###

Catalogue of pIC50 values
# testedOn: PKMYT1 (Homo sapiens (Human))
# Sequence (Q99640 whole entry): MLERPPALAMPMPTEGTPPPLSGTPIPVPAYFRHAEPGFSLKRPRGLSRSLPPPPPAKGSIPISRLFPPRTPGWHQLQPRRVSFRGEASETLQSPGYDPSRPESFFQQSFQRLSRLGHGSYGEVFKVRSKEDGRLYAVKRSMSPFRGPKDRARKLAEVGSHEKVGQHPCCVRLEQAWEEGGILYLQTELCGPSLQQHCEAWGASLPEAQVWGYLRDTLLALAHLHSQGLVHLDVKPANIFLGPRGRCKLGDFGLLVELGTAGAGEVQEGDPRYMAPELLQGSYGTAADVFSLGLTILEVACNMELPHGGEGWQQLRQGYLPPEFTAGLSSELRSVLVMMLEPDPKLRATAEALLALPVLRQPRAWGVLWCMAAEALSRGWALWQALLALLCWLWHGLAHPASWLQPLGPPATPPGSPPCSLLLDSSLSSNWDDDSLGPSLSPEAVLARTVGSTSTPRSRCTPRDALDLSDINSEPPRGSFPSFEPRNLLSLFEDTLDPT
pIC50: −log10 of the molar value.
assayEndpoint: pIC50

{"compound": "Cc1ccc(O)c(C)c1-c1cnc2[nH]c(-c3cnc(N)nc3)nc2c1C#N", "assayEndpoint": "pIC50", "observedMeasurement": "> 8.00"}
{"compound": "Cc1ccc(O)c(C)c1-c1cnc2[nH]c(-c3cnc(C(C)(C)O)nc3)cc2c1C#N", "assayEndpoint": "pIC50", "observedMeasurement": "> 8.00"}
{"compound": "Cc1ccc(O)c(C)c1-c1cnc2[nH]c(-c3cnc(N4CC(O)C4)nc3)cc2c1C#N", "assayEndpoint": "pIC50", "observedMeasurement": "> 8.00"}
{"compound": "Cc1ccc(O)c(C)c1-c1cnc2[nH]c(-c3cnc(N)nn3)cc2c1C#N", "assayEndpoint": "pIC50", "observedMeasurement": "> 8.00"}
{"compound": "Cc1ccc(O)c(C)c1-c1cnc2[nH]c(-c3cnc(OC(F)F)nc3)cc2c1C#N", "assayEndpoint": "pIC50", "observedMeasurement": "> 8.00"}
{"compound": "Cc1ccc(O)c(C)c1-c1cnc2[nH]c(-c3cnc(N4CC(C(N)=O)C4)nc3)cc2c1C#N", "assayEndpoint": "pIC50", "observedMeasurement": "> 8.00"}
{"compound": "Cc1ncc(-c2[nH]c3ncc(-c4c(C)ccc(O)c4C)c(C#N)c3c2Cl)s1", "assayEndpoint": "pIC50", "observedMeasurement": "> 8.00"}
{"compound": "Cc1ccc(O)c(C)c1-c1cnc2[nH]c(-n3cncn3)cc2c1C#N", "assayEndpoint": "pIC50", "observedMeasurement": "> 8.00"}
{"compound": "CC(=O)N1CC=C(c2cc3cc(-c4c(C)ccc(O)c4C)cnc3[nH]2)CC1", "assayEndpoint": "pIC50", "observedMeasurement": "6.30 to 7.30"}
{"compound": "C#Cc1c(-c2cnc(C)nc2)[nH]c2ncc(-c3c(C)ccc(O)c3C)c(C#N)c12", "assayEndpoint": "pIC50", "observedMeasurement": "> 8.00"}
{"compound": "Cc1ncc(-c2cc3c(C(N)=O)c(-c4c(C)ccc(O)c4C)cnc3[nH]2)cn1", "assayEndpoint": "pIC50", "observedMeasurement": "6.30 to 7.30"}
{"compound": "Cc1ccc(O)c(C)c1-c1cnc2[nH]c(-c3cnc(NC4CC4)nc3)c(Cl)c2c1C#N", "assayEndpoint": "pIC50", "observedMeasurement": "> 8.00"}
{"compound": "Cc1ccc(O)c(C)c1-c1cnc2[nH]c(-c3cnc4[nH]ncc4c3)cc2c1C#N", "assayEndpoint": "pIC50", "observedMeasurement": "> 8.00"}
{"compound": "Cc1ccc(O)c(C)c1-c1cnc2[nH]c(-c3cnoc3)cc2c1C#N", "assayEndpoint": "pIC50", "observedMeasurement": "> 8.00"}
{"compound": "Cc1ccc(O)c(C)c1-c1cnc2[nH]c(-c3cnc(OCC(O)CO)nc3)cc2c1C#N (centres unmarked)", "assayEndpoint": "pIC50", "observedMeasurement": "> 8.00"}
{"compound": "Cc1ccc(O)c(C)c1-c1cnc2[nH]c(-c3cnn(C)c(=O)c3)c(Cl)c2c1C#N", "assayEndpoint": "pIC50", "observedMeasurement": "> 8.00"}
{"compound": "COc1cncc(-c2cc3cc(-c4c(C)ccc(O)c4C)cnc3[nH]2)c1", "assayEndpoint": "pIC50", "observedMeasurement": "7.30 to 8.00"}
